# ASSAY_NAME: RNA encapsulation efficiency of LNPs (Ribogreen fluorescence assay)
# Format: physicochemical
# RUN_CONDITIONS: LNP, sg:mRNA 1:1, N/P about 6, amine lipid/DSPC/cholesterol/PEG-2k-DMG 50/9/38/3; Table 2, Experiments 2-20
ASSAY_ENDPOINT: Encapsulation (%)

MOLECULE: CCCCCCCCCCCCCCOC(=O)CCCCCCCC(=O)OCC(COC(=O)CCC(OCCCCCCCC)OCCCCCCCC)COC(=O)OCCCN(CC)CC (stereo not drawn)
Encapsulation (%): 98

MOLECULE: CCCCC/C=C\C/C=C\CCCCCCCC(=O)OCC(COC(=O)CCC(OCCCCCCCC)OCCCCCCCC)COC(=O)OC1CCN(CC)CC1 (stereo not drawn)
Encapsulation (%): 98

MOLECULE: CCCCC/C=C\C/C=C\CCCCCCCC(=O)OCC(COC(=O)CCC(OCCCCCCCC)OCCCCCCCC)COC(=O)OCCCN1CCCCCC1 (stereo not drawn)
Encapsulation (%): 95

MOLECULE: CCCCC/C=C\C/C=C\CCCCCCCC(=O)OCC(COC(=O)CCCCCC(CCCCCC)CCCCCC)COC(=O)OCCCN(CC)CC (stereo not drawn)
Encapsulation (%): 98

MOLECULE: CCCCC/C=C\C/C=C\CCCCCCCC(=O)OCC(COC(=O)CCC(OCCCCCCCC)OCCCCCCCC)COC(=O)OCC1(C)CCCN(CC)C1 (stereo not drawn)
Encapsulation (%): 99

MOLECULE: CCCCCCCCCCOC(=O)CCCCCCCCCC(=O)OCC(COC(=O)CCC(OCCCCCCCC)OCCCCCCCC)COC(=O)OCCCN(CC)CC (stereo not drawn)
Encapsulation (%): 99

---

# ASSAY_NAME: Dynamic light scattering of LNPs: Z-average diameter, number average diameter, PDI
# Assay type: physicochemical
# RUN_CONDITIONS: LNP, sg:mRNA 1:1.3, N/P about 6, 50/9/38/3; Table 2, Experiment 1
ASSAY_ENDPOINT: Number mean (nm)

COMPOUND: CCCCC/C=C\C/C=C\CCCCCCCC(=O)OCC(COC(=O)CCC(OCCCCCCCC)OCCCCCCCC)COC(=O)OCCCN(C)C (stereo not drawn)
UNIT_SPEC: nm
Number mean (nm): 59.17
//
COMPOUND: CCCCC/C=C\C/C=C\CCCCCCCC(=O)OCC(COC(=O)CCC(OCCCCCCCC)OCCCCCCCC)COC(=O)OCC1CCCN(CC)C1 (stereo not drawn)
UNIT_SPEC: nm
Number mean (nm): 50.89
//
COMPOUND: CCCCC/C=C\C/C=C\CCCCCCCC(=O)OCC(COC(=O)CCC(OCCCCCCCC)OCCCCCCCC)COC(=O)OCCCN(CC)CC (stereo not drawn) [Compound 1, reference compound]
UNIT_SPEC: nm
Number mean (nm): 63.16
//
COMPOUND: CCCCC/C=C\C/C=C\CCCCCCCC(=O)OCC(COC(=O)CCC(OCCCCCCCC)OCCCCCCCC)COC(=O)OCCCN(C)CCN(C)C (stereo not drawn)
UNIT_SPEC: nm
Number mean (nm): 44.92

A = CCCCC/C=C\C/C=C\CCCCCCCC(=O)OCC(COC(=O)CCC(OCCCCCCCC)OCCCCCCCC)COC(=O)OCCCN1CCCC1 (stereo not drawn)
B = CCCCC/C=C\C/C=C\CCCCCCCC(=O)OCC(COC(=O)CCC(OCCCCCCCC)OCCCCCCCC)COC(=O)NCCCN(C)C (stereo not drawn)
Could you tell me which of A and B has the lower Number mean (nm) reading? State your choice using its label.
B
(B: 41.82 nm, A: 61.67 nm)

---

# Serum TTR % TSS listing for each entry below
# System: Transthyretin (TTR)
# ASSAY_NAME: Serum TTR ELISA in mice after LNP dosing
# Format: in vivo, CD-1 female mice
# RUN_CONDITIONS: mouse, LNP i.v. 0.3 mg/kg, guide G282, Experiments 101-103; relative to TSS control
Answer in %, number only, no unit symbol.

As a guide, the following entries are already answered.
COMPOUND: CCCCC/C=C\C/C=C\CCCCCCCC(=O)OCC(COC(=O)CCC(OCCCCCCCC)OCCCCCCCC)COC(=O)NCC1CCCN1CC (stereo not drawn)
MEASUREMENT_TARGET: Transthyretin (TTR)
UNIT_SPEC: %
ASSAY_VALUE: 9
--
COMPOUND: CCCCC/C=C\C/C=C\CCCCCCCC(=O)OCC(COC(=O)CCC(OCCCCCCCC)OCCCCCCCC)COC(=O)C1CCN(C)CC1 (stereo not drawn)
MEASUREMENT_TARGET: Transthyretin (TTR)
UNIT_SPEC: %
ASSAY_VALUE: 17
--
COMPOUND: CCCCCCCCCCOC(=O)CCCCCCCC(=O)OCC(COC(=O)CCC(OCCCCCCCC)OCCCCCCCC)COC(=O)OCCCN(CC)CC (stereo not drawn)
MEASUREMENT_TARGET: Transthyretin (TTR)
UNIT_SPEC: %
ASSAY_VALUE: 7
--
COMPOUND: CCCCC/C=C\C/C=C\CCCCCCCC(=O)OCC(COC(=O)CCC(OCCCCCCCC)OCCCCCCCC)COC(=O)OCC1CCCN(C)C1 (stereo not drawn)
MEASUREMENT_TARGET: Transthyretin (TTR)
UNIT_SPEC: %
ASSAY_VALUE: 25
--
COMPOUND: CCCCCC/C=C\COC(=O)CCCCCCCC(=O)OCC(COC(=O)CCC(OCCCCCCCC)OCCCCCCCC)COC(=O)OCCCN(CC)CC (stereo not drawn)
MEASUREMENT_TARGET: Transthyretin (TTR)
UNIT_SPEC: %
ASSAY_VALUE: 11

From here, focus on the item given below.
Identify the measured Serum TTR % TSS of CCCCC/C=C\C/C=C\CCCCCCCC(=O)OCC(COC(=O)CCCN(CC)CC)COC(=O)CCC(OCCCCCCCC)OCCCCCCCC (stereo not drawn) for Transthyretin (TTR).
15

---

# ASSAY_NAME: Dynamic light scattering of LNPs: Z-average diameter, number average diameter, PDI
# Type: physicochemical
# RUN_CONDITIONS: LNP, sg:mRNA 1:1, N/P about 6, 50/9/38/3; Table 2, Experiments 2-20
ASSAY_ENDPOINT: PDI

As a guide, the following entries are already answered.
MOLECULE: CCCCC/C=C\C/C=C\CCCCCCCC(=O)OCC(COC(=O)CCC(OCCCCCCCC)OCCCCCCCC)COC(=O)NCCCN1CCCC1 (stereo not shown)
PDI: 0.093
//
MOLECULE: CCCCCCCCCCCCCCOC(=O)CCCCCCCC(=O)OCC(COC(=O)CCC(OCCCCCCCC)OCCCCCCCC)COC(=O)OCCCN(CC)CC (stereo not shown)
PDI: 0.004
//
MOLECULE: CCCCCCCCOC(CCC(=O)OCC(COC(=O)CCCCCCCCCCC(=O)OCCCCC)COC(=O)OCCCN(CC)CC)OCCCCCCCC (stereo not shown)
PDI: 0.022
//
MOLECULE: CCCCC/C=C\C/C=C\CCCCCCCC(=O)OCC(COC(=O)CCC(OCCCCCCCC)OCCCCCCCC)COC(=O)N1CCN(C)CC1 (stereo not shown)
PDI: 0.086
//
MOLECULE: CCCCC/C=C\C/C=C\CCCCCCCC(=O)OCC(COC(=O)CCC(OCCCCCCCC)OCCCCCCCC)COC(=O)OCCC(C)N(C)C (stereo not shown)
PDI: 0.004

I = CCCCC/C=C\C/C=C\CCCCCCCC(=O)OCC(COCCCN(CC)CC)COC(=O)CCC(OCCCCCCCC)OCCCCCCCC (stereo not shown)
II = CCCCCCCCCCOC(=O)CCCCCCCC(=O)OCC(COC(=O)CCCCCC(=O)OC(CCCCCCCC)CCCCCCCC)COC(=O)OCCCN(CC)CC (stereo not shown)
III = CCCCC/C=C\C/C=C\CCCCCCCC(=O)OCC(COC(=O)CCCN(C)C)COC(=O)CCC(OCCCCCCCC)OCCCCCCCC (stereo not shown)
Exam item: list the entries in increasing order of PDI. As an answer, provide the labels arranged in the order called for.
III, I, II
(III: 0.000, I: 0.003, II: 0.097)

I = CCCCCC/C=C\COC(=O)CCCC(=O)OCC(COC(=O)CCC(OCCCCCCCC)OCCCCCCCC)COC(=O)OCCCN(CC)CC (stereo not shown)
II = CCCCCCCCCCOC(=O)CCCCCCCC(=O)OCC(COC(=O)CCCCCC(=O)OC(CCCCCCCC)CCCCCCCC)COC(=O)OCCC1CCCN1C (stereo not shown)
III = CCCCC/C=C\C/C=C\CCCCCCCC(=O)OCC(COC(=O)CCC(OCCCCCCCC)OCCCCCCCC)COC(=O)OCCCN(C(C)C)C(C)C (stereo not shown)
Order the records by PDI, with each subsequent value no larger than the one before. As an answer, provide the labels arranged in the order called for.
I, III, II
(I: 0.067, III: 0.039, II: 0.016)

A = CCCCC/C=C\C/C=C\CCCCCCCC(=O)OCC(COC(=O)CCC(OCCCCCCCC)OCCCCCCCC)COC(=O)OCCN(C)C (stereo not shown)
B = CCCCCCCCCCOC(=O)CCCCCCCC(=O)OCC(COC(=O)CCC(OCCCCCCCC)OCCCCCCCC)COC(=O)OCCC1CCCN1C (stereo not shown)
Could you tell me which of A and B has the lower PDI reading? State your choice using its label.
B
(B: 0.021, A: 0.090)
